Sourced from PubChem BioAssay (NCI)

# Test system: A498 renal
# testProtocol: NCI-60 one-dose screen, 48 h
# runConditions: 10 µM unless noted
Compounds without any hit were thinned out: in the full panel of roughly 83,000, 20% have a hit. Activity calls are given as the source filed them. Rule for the calls: active = growth percent below 10; inactive = the rest.
I would appreciate it if you answered using one of these outcomes: 1.0 = active, 0.0 = inactive

compound | categoryLabel
O=C(/C=C/c1c(-c2ccc(Cl)cc2)nn(-c2ccccc2)c1C(F)(F)F)c1ccc(Cl)cc1 | 0.0
COc1ccc(/C=C2\COc3ccc(-c4ccccc4)cc3C2=O)c(OC)c1 | 0.0

Request: Recorded call for COc1cc(NCCCCCNC(C)(C)C)c2ncccc2c1 ?
Response: 0.0

Request: Recorded call for CC1(C)NCCC[C@]2(C)[C@H]3CC[C@@H]4[C@H]5[C@H](C(=O)/C=C/c6ccco6)CC[C@]5(CO)CC[C@@]4(C)[C@]3(C)CC[C@@H]12 ?
Response: 0.0
